Target: T1, human melanocortin-5 receptor (hMC5-R) (human, UniProt P33032 1-325)
T1 construct: whole, on cells; membranes prepared from hMC5-R cells were used; also called Melanocortin Receptor 5
T1 sequence (P33032 whole entry): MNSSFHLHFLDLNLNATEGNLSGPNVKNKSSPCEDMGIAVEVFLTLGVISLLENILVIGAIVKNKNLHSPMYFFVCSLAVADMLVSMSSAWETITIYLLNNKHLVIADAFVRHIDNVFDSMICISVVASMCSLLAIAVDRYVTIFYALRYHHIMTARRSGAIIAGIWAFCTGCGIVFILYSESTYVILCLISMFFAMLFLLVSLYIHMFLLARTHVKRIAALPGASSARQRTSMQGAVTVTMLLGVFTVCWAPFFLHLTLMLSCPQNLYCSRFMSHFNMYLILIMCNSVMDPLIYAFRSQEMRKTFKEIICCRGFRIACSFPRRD
Experiment: 125I-NDP-α-MSH competition, hMC5-R membranes
Square brackets hold non-standard residues; d marks the D form. Ends that are not written are not given here. Nle = CCCC[C@H](N)C(=O)O
Item-by-item account of % Inhibition at 1 µM

| binder | % Inhibition at 1 µM |
| --- | --- |
| YV[Nle]GCH[dF]RWDRF-NH2 (also: oxorhenium(V) N3S1 chelate: C5 SG + backbone N of X3, G4, C5, bridge at 5 via Re(V)=O, other end not in the chain) [metallopeptide 3-9] | 67% |
| YV[Nle]GH[dF]RWDRCF-NH2 (not fully specified (bridges); printed as Tyr-Val-Nle-Gly-His-D-Phe-Arg-Trp-Asp-Arg-Cys-Phe-NH2; also: oxorhenium(V) N3S1 chelate (backbone N of D9, R10, C11 and C11 S)) [metallopeptide 3-2] | 100% |
| YV[Nle]GH[dF]RCWDRF-NH2 (not fully specified (bridges); printed as Tyr-Val-Nle-Gly-His-D-Phe-Arg-Cys-Trp-Asp-Arg-Phe-NH2; also: bridge at 8 via Re(V)=O, other end not in the chain) [metallopeptide 3-5] | 81% |
| YV[Nle]GH[dF]CRWDRF-NH2 (not fully specified (bridges); printed as Tyr-Val-Nle-Gly-His-D-Phe-Cys-Arg-Trp-Asp-Arg-Phe-NH2; also: bridge at 7 via Re(V)=O, other end not in the chain) [metallopeptide 3-6] | 31% |
| YV[Nle]GH[dF]RWDCRF-NH2 (not fully specified (bridges); printed as Tyr-Val-Nle-Gly-His-D-Phe-Arg-Trp-Asp-Cys-Arg-Phe-NH2; also: oxorhenium(V) N3S1 chelate (backbone N of W8, D9, C10 and C10 S)) [metallopeptide 3-3] | 99% |

src = patent US20050282739A1
